- Assay Target: T1, DLG3_1, Q92796
- T1 sequence (Q92796 125-227, limits assumed, looked up): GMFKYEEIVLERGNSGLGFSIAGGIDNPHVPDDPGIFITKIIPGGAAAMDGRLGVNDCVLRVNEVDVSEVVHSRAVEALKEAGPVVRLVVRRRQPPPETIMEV
- Method: holdup assay
- Design: key: below the threshold = too weak to quantify, mostly under pKd 3.1 to 4
- Setup Conditions: plain residues with an end cap or a label only (N-terminal biotin on a linker: ttds)
Collected pKd values appear next to each entry.

# Binder, pKd
data = [
    ("QRQARSETLV [HPV59-E6, Q81964]", 4.58),
    ("RHTTSTETAV [HPV30-E6, P36809]", 4.45),
    ("RLQRRRETQV [HPV18-E6, P06463]", 4.34),
    ("SSLQSLETSV [ATP2B4, P23634]", 4.35),
]

Values were extracted from paper PMC9482650.
